Target: T1, CEACAM1 (Sino Biological) (human, UniProt P13688 35-428, limits assumed)
T1 construct: may be the same as CEACAM1-HIS; also called hCEACAM1; biotinylated soluble CEACAM1
T1 sequence: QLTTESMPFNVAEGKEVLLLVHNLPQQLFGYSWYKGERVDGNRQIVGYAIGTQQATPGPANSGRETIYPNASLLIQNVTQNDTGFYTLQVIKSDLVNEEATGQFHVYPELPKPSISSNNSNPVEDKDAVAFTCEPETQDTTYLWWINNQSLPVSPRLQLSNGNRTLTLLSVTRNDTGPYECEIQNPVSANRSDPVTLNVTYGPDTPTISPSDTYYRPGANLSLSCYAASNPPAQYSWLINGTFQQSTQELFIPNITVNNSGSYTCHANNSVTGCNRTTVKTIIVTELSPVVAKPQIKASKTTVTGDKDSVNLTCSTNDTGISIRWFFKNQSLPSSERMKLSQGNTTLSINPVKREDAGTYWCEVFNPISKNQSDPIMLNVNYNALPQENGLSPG
Test: SPR single-cycle
Task for the reader: assign each of the following binders its reported fold better than Parent (KD).
# number only, unit fold dropped from output

Query: Entry He4/L2 (antibody, IgG4, V domains shown, IgG4 S241P, kappa) VH: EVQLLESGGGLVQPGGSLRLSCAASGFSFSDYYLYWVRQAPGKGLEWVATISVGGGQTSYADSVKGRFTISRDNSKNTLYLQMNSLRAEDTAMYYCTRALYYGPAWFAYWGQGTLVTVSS VL: DIVMTQSPDSLAVSLGERATINCKSSQSLLNSANQKNYLAWYQQKPGQPPKLLIYFASTRESGVPDRFSGSGSGTDFTLTISSLQAEDVAVYYCQSHYPFPYTFGGGTKVEIK has what fold better than Parent (KD)?
Response: 2.09

Query: Then this binder: He9/L2 (antibody, IgG4, V domains shown, IgG4 S241P, kappa) VH: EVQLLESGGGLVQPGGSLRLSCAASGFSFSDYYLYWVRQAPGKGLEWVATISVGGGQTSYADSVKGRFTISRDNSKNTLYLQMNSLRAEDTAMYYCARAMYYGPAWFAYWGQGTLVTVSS VL: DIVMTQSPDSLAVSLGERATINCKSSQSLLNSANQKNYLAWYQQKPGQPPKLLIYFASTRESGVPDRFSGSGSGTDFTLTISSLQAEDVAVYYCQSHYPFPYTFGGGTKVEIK
Response: 2.27

Query: Same thing, different binder: He3/L4#2 (antibody, IgG4, V domains shown, IgG4 S241P, kappa) VH: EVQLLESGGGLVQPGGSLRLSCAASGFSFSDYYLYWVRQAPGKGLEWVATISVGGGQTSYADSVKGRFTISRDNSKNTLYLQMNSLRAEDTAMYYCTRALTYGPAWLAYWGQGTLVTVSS VL: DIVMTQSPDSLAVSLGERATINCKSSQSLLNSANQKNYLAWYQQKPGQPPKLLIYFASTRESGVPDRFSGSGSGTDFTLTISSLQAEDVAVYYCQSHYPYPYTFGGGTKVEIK
Response: 4.24
